System: K98450-129-R-PDC multicell spheroids, viability
Assay: Anticancer human tumor K98450-129-R-PDC patient-derived colon adenocarcinoma cell line growth inhibition [PI3K]
Settings: second compound 0.0316 µM; first compound 0.0316 µM; stronger effect = lower value
Collected viability, T/C values appear next to each entry.
test readout: viability, T/C (%)

INSERT INTO results (compound, numeric_value) VALUES
  ('C=CC(=O)N1CCN(c2nc(=O)n(-c3c(C)ccnc3C(C)C)c3nc(-c4c(O)cccc4F)c(F)cc23)C(C)C1 (stereo not given) + CC(Nc1ncnc2nc[nH]c12)c1cc2cccc(Cl)c2c(=O)n1-c1ccccc1', 94.3),
  ('CNC(=O)c1ccc(N2C(=S)N(c3ccc(C#N)c(C(F)(F)F)c3)C(=O)C2(C)C)cc1F + CC(Nc1ncnc2nc[nH]c12)c1cc2cccc(Cl)c2c(=O)n1-c1ccccc1', 109),
  ('Cn1ncnc1[C@H]1c2n[nH]c(=O)c3cc(F)cc(c23)N[C@@H]1c1ccc(F)cc1 + COc1c(OCCCN2CCOCC2)ccc2c3n(c(=NC(=O)c4cnc(N)nc4)nc12)CCN3', 89.5),
  ('CC(C)n1nc(-c2ccc3oc(N)nc3c2)c2c(N)ncnc21 + COc1c(OCCCN2CCOCC2)ccc2c3n(c(=NC(=O)c4cnc(N)nc4)nc12)CCN3', 74),
  ('CC(Cn1ccc(-c2ccc(C#N)c(Cl)c2)n1)NC(=O)c1cc(C(C)O)[nH]n1 (stereo not given) + COc1c(OCCCN2CCOCC2)ccc2c3n(c(=NC(=O)c4cnc(N)nc4)nc12)CCN3', 88.9);

----------
Test system: K98450-129-R-PDC multicell spheroids, viability
Test: Anticancer human tumor K98450-129-R-PDC cell line growth inhibition [PI3K];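 note: spheroids exposed to agents for seven days before read-out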
Conditions: second compound 0.0316 µM; first compound 0.316 µM; stronger effect = lower value
test readout: viability, T/C

INSERT INTO assay_data (compound, test_readout, result) VALUES
  ('CNC(=O)c1ccc(N2C(=S)N(c3ccc(C#N)c(C(F)(F)F)c3)C(=O)C2(C)C)cc1F + COc1c(OCCCN2CCOCC2)ccc2c3n(c(=NC(=O)c4cnc(N)nc4)nc12)CCN3', 'viability, T/C', '84.4%'),
  ('C[C@@H](NC(=O)c1ncnc(N)c1Cl)c1ncc(C(=O)Nc2cc(C(F)(F)F)c(Cl)cn2)s1 + COc1c(OCCCN2CCOCC2)ccc2c3n(c(=NC(=O)c4cnc(N)nc4)nc12)CCN3', 'viability, T/C', '97.4%'),
  ('CCCS(=O)(=O)Nc1ccc(F)c(C(=O)c2c[nH]c3ncc(-c4ccc(Cl)cc4)cc23)c1F + CC(Nc1ncnc2nc[nH]c12)c1cc2cccc(Cl)c2c(=O)n1-c1ccccc1', 'viability, T/C', '106%');

----------
System: K98450-129-R-PDC multicell spheroids, viability
Test: Anticancer human tumor K98450-129-R-PDC cell line growth inhibition [PI3K];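 note: spheroids exposed to agents for seven days before read-out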
Settings: second compound 0.0316 µM; first compound 0.949 µM; stronger effect = lower value
Collected viability, T/C values appear next to each entry.
test readout: viability, T/C (%)

INSERT INTO assay_data (molecule, tested_target, test_readout, uom, numeric_value) VALUES
  ('Cn1cnc2c(F)c(Nc3ccc(Br)cc3Cl)c(C(=O)NOCCO)cc21 + COc1c(OCCCN2CCOCC2)ccc2c3n(c(=NC(=O)c4cnc(N)nc4)nc12)CCN3', 'K98450-129-R-PDC multicell spheroids, viability', 'viability, T/C', '%', 37.7),
  ('Cn1cnc2c(F)c(Nc3ccc(Br)cc3Cl)c(C(=O)NOCCO)cc21 + Cc1nc(NC(=O)N2CCCC2C(N)=O)sc1-c1ccnc(C(C)(C)C(F)(F)F)c1', 'K98450-129-R-PDC multicell spheroids, viability', 'viability, T/C', '%', 61.2),
  ('Cn1cnc2c(F)c(Nc3ccc(Br)cc3Cl)c(C(=O)NOCCO)cc21 + CC(Nc1ccc2c(c1)OCCn1cc(N3C(=O)OCC3C(F)F)nc1-2)C(N)=O', 'K98450-129-R-PDC multicell spheroids, viability', 'viability, T/C', '%', 62.1),
  ('Cn1cnc2c(F)c(Nc3ccc(Br)cc3Cl)c(C(=O)NOCCO)cc21 + CC(Nc1ncnc2nc[nH]c12)c1cc2cccc(Cl)c2c(=O)n1-c1ccccc1', 'K98450-129-R-PDC multicell spheroids, viability', 'viability, T/C', '%', 50.1);
